These entries and their values trace back to paper PMC8306904.

- System: amastigote forms of T. cruzi
- TEST_METHOD_NOTES: Activity against amastigote forms of T. cruzi in infected macrophages
- Format: cell-based, Trypanosoma cruzi
- RUN_CONDITIONS: Trypanosoma cruzi, Peritoneal macrophage, in Mus musculus, 48 h, read-out: IC50, 50% inhibitory concentration against amastigote forms of T. cruzi, intracellular amastigotes in BALB/c peritoneal macrophages, 48 h, 30 to […]
MEASURED_PARAMETER: IC50 (µM)
The reply should be a number in µM, with the unit left off.

Reference set (5 entries):
IN: Please look up its IC50: C=CCc1cc(OC)cc(Oc2ccc(CC=C)cc2OC)c1
OUT: 5.8

IN: What about this compound? C=CCc1ccc(Oc2cc(C(=O)C=C)cc(OC)c2OC(C)=O)c(OC)c1
OUT: 4.3

IN: What about this compound? O=C(Cn1ccnc1[N+](=O)[O-])NCc1ccccc1 [Bzd, benznidazole, reference compound]
OUT: 5.5

IN: What about this compound? C=CCc1ccc(Oc2cc([C@@H](O)C=C)cc(OC)c2OC)c(OC)c1
OUT: 14.3

IN: What about this compound? CCCc1cc(OC)cc(Oc2ccc(CCC)cc2OC)c1
OUT: 10.9

Continuing:
IN: Please look up its IC50: C=CCc1ccc(Oc2cc(C(=O)C=C)cc(OC)c2OC)c(OC)c1
OUT: 26.3

* * *

- Test system: amastigote forms of T. cruzi
- TEST_METHOD_NOTES: Activity against amastigote forms of T. cruzi in infected macrophages
- Assay type: cell-based, Trypanosoma cruzi
- RUN_CONDITIONS: Trypanosoma cruzi, Peritoneal macrophage, in Mus musculus, 48 h, read-out: IC50, 50% inhibitory concentration against amastigote forms of T. cruzi, intracellular amastigotes in BALB/c peritoneal macrophages, 48 h, 30 to […]
IC50: recorded values

IN: Notebook entry, amastigote forms of T. cruzi assay: IC50 of C=CCc1ccc(Oc2cc(C(=O)C=C)cc(OC)c2O)c(OC)c1 = ?
OUT: > 30 µM

IN: What about this compound? C=CCc1ccc(Oc2cc([C@@H](O)C=C)cc(OC)c2O)c(OC)c1
OUT: > 30 µM

Next, consider the following compound.
IN: Notebook entry, amastigote forms of T. cruzi assay: IC50 of C=CCc1ccc(Oc2cc(CC=C)cc(OC)c2OCCCCC)c(OC)c1 = ?
OUT: > 30 µM
